TEST_NAME: solvent given as SMILES
APPLIED_CONDITIONS: in CCCCCC
Answer Not fulfilled if absorption maximum is under 400 nm, and Fulfilled if it is 400 nm or more.

>  <COMPOUND>
CC(C)=O

>  <GROUP_LABEL>
Not fulfilled

$$$$
>  <COMPOUND>
Oc1ccccc1/C=N/N=C/c1ccccc1O

>  <GROUP_LABEL>
Not fulfilled

$$$$
>  <COMPOUND>
CC1=[N+]2C(=C(c3c4ccccc4c(C)c4ccccc34)c3ccc(C)n3[B-]2(F)F)C=C1

>  <GROUP_LABEL>
Fulfilled

$$$$
>  <COMPOUND>
O=Cc1ccc(N(c2ccc(C=O)cc2)c2ccc(-c3ccc4c(c3)C(=O)c3ccccc3C4=O)cc2)cc1

>  <GROUP_LABEL>
Not fulfilled

$$$$
>  <COMPOUND>
Cc1cc(C(F)(F)F)nc2c1ccc1nc(-c3ccc(Cl)cc3)cn12

>  <GROUP_LABEL>
Not fulfilled

$$$$
>  <COMPOUND>
CCCCN1C(=O)C(=CC=C2N(CCCC)c3ccccc3N2CCCC)C(=O)N(CCCC)C1=S

>  <GROUP_LABEL>
Fulfilled

$$$$
>  <COMPOUND>
Cc1ccccc1/C(C#N)=C/c1ccc(N(C)C)cc1

>  <GROUP_LABEL>
Not fulfilled

$$$$
>  <COMPOUND>
CCC1(CC)c2cc(B(c3c(C)cc(C)cc3C)c3c(C)cc(C)cc3C)ccc2-c2ccc(N(c3ccccc3)c3ccc4c(c3)C(CC)(CC)c3cc(B(c5c(C)cc(C)cc5C)c5c(C)cc(C)cc5C)ccc3-4)cc21

>  <GROUP_LABEL>
Fulfilled

$$$$
>  <COMPOUND>
CCC1=C(C)C2=Cc3c4ccccc4c4n3[B-](c3ccncc3)(Oc3ccccc3-4)[N+]2=C1C (stereo not drawn)

>  <GROUP_LABEL>
Fulfilled

$$$$
>  <COMPOUND>
CCCCCCCCCCCn1cccc1C1=[N+]2C(=Cc3c(C)cc(C)n3[B-]2(F)F)c2ccccc21

>  <GROUP_LABEL>
Fulfilled

$$$$
>  <COMPOUND>
Cc1cc(O)c(C(C)C)cc1/N=C/c1ccc(C(F)(F)F)cc1

>  <GROUP_LABEL>
Not fulfilled

$$$$
>  <COMPOUND>
CCCCCCc1ccsc1-c1ccc(-c2sc(C(=O)O)cc2CCCCCC)s1

>  <GROUP_LABEL>
Not fulfilled

$$$$

---

TEST_NAME: solvent given as SMILES
APPLIED_CONDITIONS: in C1CCOC1
Reported values of absorption maximum for individual entries
MEASURED_PROPERTY: absorption maximum (nm)

>  <COMPOUND>
N#Cc1c(N2CCCCC2)cc(-c2ccc3ccc4cccc5ccc2c3c45)c2c1-c1ccccc1C2=O

>  <TEST_VALUE>
393

$$$$
>  <COMPOUND>
O=Cc1ccc(N(c2ccc(C=O)cc2)c2ccc(-c3ccc4c(c3)C(=O)c3ccccc3C4=O)cc2)cc1

>  <TEST_VALUE>
374

$$$$
>  <COMPOUND>
CN(CC(O)c1cccc(O)c1)c1ccc([N+](=O)[O-])c(C2CC(c3cccc4ccccc34)=NN2c2ccccc2)c1 (stereo unspecified)

>  <TEST_VALUE>
411

$$$$
>  <COMPOUND>
Cc1c2ccncc2c(C)c2c1[nH]c1ccccc12

>  <TEST_VALUE>
293.3

$$$$
>  <COMPOUND>
F[Si](c1ccccc1)(c1ccccc1)c1cccc2ccccc12

>  <TEST_VALUE>
286

$$$$
>  <COMPOUND>
CC1=CS[C@]2(C)C1=C1C(=C3C(C)=C(c4ccc(-c5nc(-c6ccccc6)c(-c6ccccc6)[nH]5)cc4)S[C@]32C)C(F)(F)C(F)(F)C1(F)F

>  <TEST_VALUE>
565

$$$$

---

TEST_NAME: solvent given as SMILES
APPLIED_CONDITIONS: in c1ccncc1

>  <COMPOUND>
C1=C(c2ccc(-c3cccs3)s2)CCC1

>  <absorption maximum>
348 nm

$$$$
>  <COMPOUND>
CC1CC=C(c2ccc(-c3cccs3)s2)CC1 (stereo not given)

>  <absorption maximum>
343 nm

$$$$
>  <COMPOUND>
C1=C(c2ccc(-c3cccs3)s2)CCC(c2ccccc2)C1 (stereo not given)

>  <absorption maximum>
347 nm

$$$$
>  <COMPOUND>
CN(C)c1ccc(/C=C/C=C2\CC/C(=C\c3ccc(N(C)C)cc3)C2=O)cc1

>  <absorption maximum>
488 nm

$$$$
>  <COMPOUND>
COc1ccc2c3cccc4c(OC)ccc(c5cccc1c52)c43

>  <absorption maximum>
463 nm

$$$$

---

TEST_NAME: solvent given as SMILES
APPLIED_CONDITIONS: in CO
MEASURED_PROPERTY: absorption maximum

>  <COMPOUND_STRING>
Cn1c(=O)c(/N=N/c2cc(S(=O)(=O)O)ccc2S(=O)(=O)O)c(O)c2ccccc21

>  <MEASURED_PROPERTY>
absorption maximum

>  <TEST_VALUE>
422 nm

$$$$
>  <COMPOUND_STRING>
Cc1cnc(NC(=O)C2=C([O-])c3ccccc3S(=O)(=O)N2C)s1

>  <MEASURED_PROPERTY>
absorption maximum

>  <TEST_VALUE>
364 nm

$$$$
>  <COMPOUND_STRING>
CN(C)CCN(Cc1c2ccccc2cc2ccccc12)c1ccc([N+](=O)[O-])cc1[N+](=O)[O-]

>  <MEASURED_PROPERTY>
absorption maximum

>  <TEST_VALUE>
391 nm

$$$$
>  <COMPOUND_STRING>
CCN1\C(=C/C=C/C=C/C2=[N+](CC)c3ccc4cc(Br)ccc4c3C2(C)C)C(C)(C)c2c1ccc1cc(Br)ccc21

>  <MEASURED_PROPERTY>
absorption maximum

>  <TEST_VALUE>
681 nm

$$$$
>  <COMPOUND_STRING>
CCN(CC)c1ccc2cc(/C=C/C(O)=C/C(C)=O)c(=O)oc2c1

>  <MEASURED_PROPERTY>
absorption maximum

>  <TEST_VALUE>
458 nm

$$$$
>  <COMPOUND_STRING>
C[n+]1ccc(-c2ccc([O-])cc2)cc1

>  <MEASURED_PROPERTY>
absorption maximum

>  <TEST_VALUE>
418 nm

$$$$

---

The entries below are paired with their reported absorption maximum.
TEST_NAME: solvent given as SMILES
APPLIED_CONDITIONS: in ClCCl
MEASURED_PROPERTY: absorption maximum (nm)

>  <COMPOUND>
CC(C)(C)c1ccc(N(c2ccc(C(C)(C)C)cc2)c2cc(N(c3ccc(C(C)(C)C)cc3)c3ccc(C(C)(C)C)cc3)c3ccc4cc(C(C)(C)C)cc5ccc2c3c54)cc1

>  <MEASURED_PROPERTY>
absorption maximum

>  <TEST_VALUE>
425

$$$$
>  <COMPOUND>
CCn1c2ccccc2c2cc(-c3cc(-c4ccc5c(c4)c4ccccc4n5CC)nc(-c4ccccc4)n3)ccc21

>  <MEASURED_PROPERTY>
absorption maximum

>  <TEST_VALUE>
363

$$$$
>  <COMPOUND>
CCCCC(CC)COc1ccc2nc(-c3ccc(-c4ccc(N(C)C)cc4)s3)sc2c1 (stereo unspecified)

>  <MEASURED_PROPERTY>
absorption maximum

>  <TEST_VALUE>
402

$$$$
>  <COMPOUND>
c1ccc(C2=C(c3ccccc3)c3cccc4c5c(cc(c34)O2)=NC2CCCCC2N=5)cc1 (stereo unspecified)

>  <MEASURED_PROPERTY>
absorption maximum

>  <TEST_VALUE>
431

$$$$
>  <COMPOUND>
CN(C)c1ccc2nc(/C=C/c3ccccc3)c(=O)oc2c1

>  <MEASURED_PROPERTY>
absorption maximum

>  <TEST_VALUE>
467.5

$$$$
>  <COMPOUND>
CN1CCN(c2cccc(/C=C/c3ncc(-c4ccc(OCc5ccccc5)c(OCc5ccccc5)c4)o3)c2)CC1

>  <MEASURED_PROPERTY>
absorption maximum

>  <TEST_VALUE>
354

$$$$
>  <COMPOUND>
CC(C)(C)NC(=O)c1cccc2ccc3c4cc(Cl)ccc4c4ccc(Cl)cc4c3c12

>  <MEASURED_PROPERTY>
absorption maximum

>  <TEST_VALUE>
335

$$$$
>  <COMPOUND>
Cn1c(=O)c(/N=N/c2cc(S(=O)(=O)O)ccc2S(=O)(=O)O)c(O)c2ccccc21

>  <MEASURED_PROPERTY>
absorption maximum

>  <TEST_VALUE>
415

$$$$
>  <COMPOUND>
COc1cc2c(cc1OC)C1=C[C@H](c3ccccc3)C3(C(C#N)=C(C#N)N1CC2)c1cc(Cl)ccc1-c1ccc(Cl)cc13

>  <MEASURED_PROPERTY>
absorption maximum

>  <TEST_VALUE>
310

$$$$
>  <COMPOUND>
CCCCN(CCCC)c1ccc2c(c1)C#CC#Cc1cc(C(F)(F)F)ccc1C#Cc1cc(c3cc1C#Cc1ccc(C(F)(F)F)cc1C#CC#Cc1cc(N(CCCC)CCCC)ccc1C#C3)C#C2

>  <MEASURED_PROPERTY>
absorption maximum

>  <TEST_VALUE>
474

$$$$
>  <COMPOUND>
CCOC(=O)COc1ccc(/C=C/C2=C3c4ccccc4C(c4[nH]c(C)cc4C)=[N+]3[B-](F)(F)n3c(C)cc(C)c32)cc1

>  <MEASURED_PROPERTY>
absorption maximum

>  <TEST_VALUE>
608

$$$$
